Sourced from ChEMBL document CHEMBL3259695

- system-tested: D(3) dopamine receptor (Homo sapiens, UniProt P35462)
- Sequence (P35462 whole entry): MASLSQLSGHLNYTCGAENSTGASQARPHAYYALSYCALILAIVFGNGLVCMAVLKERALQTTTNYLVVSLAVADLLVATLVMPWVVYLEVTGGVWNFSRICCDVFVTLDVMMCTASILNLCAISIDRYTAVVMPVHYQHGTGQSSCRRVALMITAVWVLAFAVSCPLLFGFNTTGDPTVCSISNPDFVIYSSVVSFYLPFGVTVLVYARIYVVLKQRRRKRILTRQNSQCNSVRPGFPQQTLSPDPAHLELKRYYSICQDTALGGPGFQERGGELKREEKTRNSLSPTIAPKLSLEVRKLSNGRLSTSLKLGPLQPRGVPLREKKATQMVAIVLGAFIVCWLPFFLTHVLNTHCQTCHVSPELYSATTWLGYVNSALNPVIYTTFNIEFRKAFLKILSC
measured-property: pIC50
Give bare numbers, as −log10 of the molar value.

Req: Record request: pIC50 value, item CCCN(CC[C@]1(O)C[C@@H](NC(=O)c2ccc3ccccc3c2)C1)[C@@H]1C[C@H]1c1ccc(Cl)cc1
Resp: 6.49

###

- Species: Rattus norvegicus
- measurement-notes: Selectivity ratio of Ki for dopamine D1-like receptor in Sprague-Dawley rat caudate putamen to Ki for dopamine D3 receptor in Sprague-Dawley rat ventral striatum
- Format: tissue-based
measured-property: Ratio Ki
Numbers only.

Some entries whose results are on file:
Req: Form field: reported Ratio Ki of CCCN(CC[C@]1(O)C[C@@H](NC(=O)c2ccc3ccccc3c2)C1)[C@@H]1C[C@H]1c1ccccc1
Resp: 64

Req: Recorded Ratio Ki for CCCN(CC[C@]1(O)C[C@@H](NC(=O)c2ccc3ccccc3c2)C1)[C@H]1C[C@@H]1c1cccc(Cl)c1 (racemic) , please?
Resp: 64

Req: What does the record list as Ratio Ki for CCCN[C@H]1C[C@@H]1c1ccccc1 ?
Resp: 105

Take each entry in turn and give its Ratio Ki.
1. CCCN(CC[C@]1(O)C[C@@H](NC(=O)c2ccc3ccccc3c2)C1)[C@H]1C[C@@H]1c1ccccc1Cl (racemic)
2. CCCN[C@@H]1C[C@H]1c1ccccc1

Resp:
1: 39; 2: 76

Req: Can you share its Ratio Ki? I mean this compound: CCCN(CC[C@]1(O)C[C@@H](NC(=O)c2ccc3ccccc3c2)C1)[C@H]1C[C@@H]1c1ccccc1
Resp: 29
